Each item that follows carries a reported LC retention time.
Test: RP, Thermo Scientific Acclaim RSLC 120 C18, 100 × 2.1 mm, 2.2 µm, 30 °C, 0.2 mL/min, estimated dead time 1.1 min; A: 90% water + 10% methanol + 0.01% formic acid + 5 mM ammonium formate, pH 3.61; B: methanol + 0.01% formic acid + 5 mM ammonium formate, pH 3.61; gradient (min/%B) 0/1 1/1 2/39 13/99.9 15/99.9 15.1/1 20.1/1
Details: stereoisomer not certain
Endpoint: LC retention time

>>> endpoint_result("CCC1C2CC3C4N(C)c5ccccc5C45CC(C2C5O)[N+]3(CC(O)CN(CC)CC)C1O (centres undefined)")
"4.62 min"
>>> endpoint_result("COc1ccc2c3c1OC1C(O)C=CC4C(C2)NCCC341 (centres undefined)")
"3.5 min"
>>> endpoint_result("CCCCOC(=O)c1ccccc1C(=O)OCc1ccccc1 [Phthalate-Benzyl butyl]")
"12.4 min"
>>> endpoint_result("CCCCCn1cc(C(=O)Oc2cccc3cccnc23)c2ccccc21")
"11.9 min"
>>> endpoint_result("NS(=O)(=O)c1cc(C2(O)NC(=O)c3ccccc32)ccc1Cl (centres undefined)")
"5.06 min"
>>> endpoint_result("OC(c1ccccc1)(c1ccccc1)C1CCNCC1")
"6.19 min"
>>> endpoint_result("CCNCC(=O)Nc1c(C)cccc1C")
"4.33 min"
>>> endpoint_result("CN=C(NC#N)NCCSCc1nc[nH]c1C")
"3.24 min"
>>> endpoint_result("COP(=O)(OC)Oc1ccc(SC)c(C)c1")
"8.82 min"

----------
Test: RP, Thermo Scientific Acclaim RSLC 120 C18, 100 × 2.1 mm, 2.2 µm, 30 °C, 0.2 mL/min, estimated dead time 1.1 min; A: 90% water + 10% methanol + 0.01% formic acid + 5 mM ammonium formate, pH 3.61; B: methanol + 0.01% formic acid + 5 mM ammonium formate, pH 3.61; gradient (min/%B) 0/1 1/1 2/39 13/99.9 15/99.9 15.1/1 20.1/1
Details: stereoisomer not certain
// classify: if (LC retention time < 9 min) Condition met else Condition not met

>>> classification("NC(=O)N1c2ccccc2CC(=O)c2ccccc21 [Oxcarbazepine]")
"Condition met"
>>> classification("CN1CCC(=C2c3ccccc3CC(=O)c3sccc32)CC1 [Ketotifen]")
"Condition met"
>>> classification("COP(=O)(OC)OC(=CCl)c1ccc(Cl)cc1Cl [Dimethylvinphos]")
"Condition not met"
>>> classification("CCCCCn1c(O)c(C(=O)c2cccc3ccccc23)c2ccccc21 [JWH-018-M-2-OH-Ind]")
"Condition not met"
>>> classification("Clc1ccccc1C(c1ccccc1)(c1ccccc1)n1ccnc1 [Clotrimazole]")
"Condition not met"
>>> classification("Clc1ccc(C(c2ccccc2)N2CCNCC2)cc1 (centres undefined) [Piperazine -1[(4-chlorophenyl) phenyl methyl]]")
"Condition met"
>>> classification("CN(C)CCCN1c2ccccc2CCc2ccccc21 [Imipramine]")
"Condition met"
>>> classification("CCC1COC(Cn2cncn2)(c2ccc(Cl)cc2Cl)O1 (centres undefined) [Etaconazole]")
"Condition not met"
>>> classification("O=C1CN=C(c2ccccc2)c2c(sc3c2CCCC3)N1 [Bentazepam]")
"Condition not met"

----------
Each item that follows carries a reported LC retention time.
Test: RP, Thermo Scientific Acclaim RSLC 120 C18, 100 × 2.1 mm, 2.2 µm, 30 °C, 0.2 mL/min, estimated dead time 1.1 min; A: 90% water + 10% methanol + 0.01% formic acid + 5 mM ammonium formate, pH 3.61; B: methanol + 0.01% formic acid + 5 mM ammonium formate, pH 3.61; gradient (min/%B) 0/1 1/1 2/39 13/99.9 15/99.9 15.1/1 20.1/1
Settings: stereoisomer not certain
Endpoint: LC retention time (min)

>>> endpoint_result("COC(=O)c1ccccc1S(=O)(=O)NC(=O)Nc1nc(C)cc(C)n1")
6.92
>>> endpoint_result("CCn1cc(C(=O)O)c(=O)c2cc(F)c(N3CCNCC3)cc21")
4.46
>>> endpoint_result("CC(C)C1(NC(=O)C2CC3c4cccc5[nH]cc(c45)CC3N(C)C2)OC2(O)C3CCCN3C(=O)C(Cc3ccccc3)N2C1=O (centres undefined) [Ergocristine-Dihydro]")
8.17
>>> endpoint_result("COc1cc(CCN)c(OC)cc1I")
6.06
>>> endpoint_result("CCCCC(C#N)(Cn1cncn1)c1ccc(Cl)cc1 (centres undefined)")
9.74
>>> endpoint_result("Cc1c(C=O)c(=O)n(-c2ccccc2)n1C [4-Formyl-antipyrine]")
3.98
>>> endpoint_result("CNC(=O)C(C)SCCSP(=O)(OC)OC (centres undefined)")
5.02
>>> endpoint_result("CCCNCCOc1c(Cl)cc(Cl)cc1Cl")
6.99
>>> endpoint_result("CN(C(=O)CO)c1c(I)c(C(=O)NCC(O)CO)c(I)c(C(=O)NCC(O)CO)c1I (centres undefined)")
2.91

Data origin, for the record: the RepoRT retention time repository (doi:10.1021/acs.analchem.2c02893)
